# measurementProtocol: Fluorescence quantum yield in MeOH
# Assay type: physicochemical
# conditionNotes: quantum yield for fluorescence in MeOH
readoutType: ΦF, MeOH
Just the number, please, no unit attached.

Examples from the recorded data:
> print(dat)
                       smilesrepresentation  reported
1  CN(C)c1ccc2c(-c3ccc(C(=S)N4CCCCC4)s3)c3cc4c5c(c3[s+]c2c1)CCCN5CCC4.[Cl-]      0.30
2  CN1CCC(C)(C)c2cc3c(-c4ccc(C(=S)N5CCCCC5)s4)c4ccc(=[N+](C)C)cc-4sc3cc21.[Cl-]      0.07

Data request: ΦF, MeOH for `CCN(CC)C(=S)c1ccc(-c2c3ccc(=[N+](C)C)cc-3sc3cc4c(cc23)C(C)(C)CCN4C)s1.F[P-](F)(F)(F)(F)F` ?
Data returned: 0.07

Data request: Repeat for the following molecule: `CCN(CC)C(=S)c1ccc(-c2c3ccc(=[N+](C)C)cc-3[se]c3cc4c(cc23)C(C)(C)CCN4C)s1.[Cl-]`
Data returned: 0.008

Data request: Repeat for the following molecule: `CN1CCC(C)(C)c2cc3c(-c4ccc(C(=O)N5CCCCC5)s4)c4ccc(=[N+](C)C)cc-4[se]c3cc21.[Cl-]`
Data returned: 0.009

* * *

# measurementProtocol: Fluorescence quantum yield in MeOH
# Assay type: physicochemical
# conditionNotes: quantum yield for fluorescence in MeOH
readoutType: ΦF, MeOH
Just the number, please, no unit attached.

> print(dat)
                       smilesrepresentation  reported
1  CCN(CC)C(=O)c1ccc(-c2c3ccc(=[N+](C)C)cc-3[se]c3cc4c(cc23)C(C)(C)CCN4C)s1.[Cl-]     0.009
2  CN(C)c1ccc2c(-c3ccc(C(=O)N4CCCCC4)s3)c3cc4c5c(c3[s+]c2c1)CCCN5CCC4.F[P-](F)(F)(F)(F)F      0.36
3  CCN(CC)C(=O)c1ccc(-c2c3ccc(=[N+](C)C)cc-3sc3cc4c(cc23)C(C)(C)CCN4C)s1.[Cl-]      0.09

Data request: ΦF, MeOH for `CN(C)c1ccc2c(-c3ccc(C(=S)N4CCCCC4)s3)c3cc4c5c(c3[se+]c2c1)CCCN5CCC4.[Cl-]` ?
Data returned: 0.009

* * *

# measurementProtocol: physchem
# conditionNotes: n-octanol/phosphate buffered saline, pH 7.4
readoutType: logP
Just the number, please, no unit attached.

Data request: logP for CCN(CC)C(=O)c1ccc(-c2c3ccc(N(C)C)cc3[se+]c3c4c5c(cc23)CCCN5CCC4)s1.[Cl-] [8-Se—Cl] ?
Data returned: 2.87

* * *

# conditionNotes: n-octanol / PBS pH 7.4, shake flask
readoutType: log P
Just the number, please, no unit attached.

Examples from the recorded data:
> print(dat)
                       smilesrepresentation  reported
1  CCN(CC)C(=O)c1ccc(-c2c3ccc(N(C)C)cc3[s+]c3c4c5c(cc23)CCCN5CCC4)s1.F[P-](F)(F)(F)(F)F       1.4
2  CCN(CC)C(=S)c1ccc(-c2c3ccc(N(C)C)cc3[s+]c3c4c5c(cc23)CCCN5CCC4)s1.F[P-](F)(F)(F)(F)F       2.7
3  CCN(CC)C(=O)c1ccc(-c2c3ccc(=[N+](C)C)cc-3sc3cc4c(cc23)C(C)(C)CCN4C)s1.F[P-](F)(F)(F)(F)F       1.5
4  CN1CCC(C)(C)c2cc3c(-c4ccc(C(=O)N5CCCCC5)s4)c4ccc(=[N+](C)C)cc-4sc3cc21.[Cl-]      2.26
5  CN(C)c1ccc2c(-c3ccc(C(=S)N4CCCCC4)s3)c3cc4c5c(c3[s+]c2c1)CCCN5CCC4.F[P-](F)(F)(F)(F)F       1.7

Data request: log P for `CN1CCC(C)(C)c2cc3c(-c4ccc(C(=O)N5CCCCC5)s4)c4ccc(=[N+](C)C)cc-4[se]c3cc21.[Cl-]` ?
Data returned: 2.23

* * *

# measurementProtocol: Fluorescence quantum yield in MeOH
# Format: physicochemical
# conditionNotes: quantum yield for fluorescence in MeOH
readoutType: ΦF, MeOH
Just the number, please, no unit attached.

Examples from the recorded data:
> print(dat)
                                   compound  reported
1  CN1CCC(C)(C)c2cc3c(-c4ccc(C(=S)N5CCCCC5)s4)c4ccc(=[N+](C)C)cc-4[se]c3cc21.[Cl-] [1-Se—Cl]     0.008
2  CCN(CC)C(=S)c1ccc(-c2c3ccc(=[N+](C)C)cc-3sc3cc4c(cc23)C(C)(C)CCN4C)s1.[Cl-] [3-S—Cl]      0.07
3  CCN(CC)C(=O)c1ccc(-c2c3ccc(=[N+](C)C)cc-3sc3cc4c(cc23)C(C)(C)CCN4C)s1.F[P-](F)(F)(F)(F)F [4-S—PF6]      0.09
4  CN1CCC(C)(C)c2cc3c(-c4ccc(C(=S)N5CCCCC5)s4)c4ccc(=[N+](C)C)cc-4sc3cc21.F[P-](F)(F)(F)(F)F [1-S—PF6]      0.07

Data request: ΦF, MeOH for CN(C)c1ccc2c(-c3ccc(C(=O)N4CCCCC4)s3)c3cc4c5c(c3[s+]c2c1)CCCN5CCC4.[Cl-] [6-S—Cl] ?
Data returned: 0.36

Data request: Repeat for the following compound: CN1CCC(C)(C)c2cc3c(-c4ccc(C(=O)N5CCCCC5)s4)c4ccc(=[N+](C)C)cc-4sc3cc21.F[P-](F)(F)(F)(F)F [2-S—PF6]
Data returned: 0.09

Data request: Repeat for the following compound: CN(C)c1ccc2c(-c3ccc(C(=O)N4CCCCC4)s3)c3cc4c5c(c3[se+]c2c1)CCCN5CCC4.[Cl-] [6-Se—Cl]
Data returned: 0.011

Data request: Repeat for the following compound: CN(C)c1ccc2c(-c3ccc(C(=S)N4CCCCC4)s3)c3cc4c5c(c3[s+]c2c1)CCCN5CCC4.F[P-](F)(F)(F)(F)F [5-S—PF6]
Data returned: 0.28

Data request: Repeat for the following compound: CN1CCC(C)(C)c2cc3c(-c4ccc(C(=O)N5CCCCC5)s4)c4ccc(=[N+](C)C)cc-4sc3cc21.[Cl-] [2-S—Cl]
Data returned: 0.09
